Hey, just so you know, these numbers are from ChEMBL document CHEMBL1201862.

# System: BT-549
# Assay Procedure: NCI tumour cell line growth inhibition, 48 h
The source made the active and inactive calls. Rule as the data show it: active = GI50 up to about 1.1 µM and inactive = higher.
For each entry below, report its GI50 value.

Request the reported GI50 associated with O=C1c2ccccc2C(=O)N1C1(C(=O)NC2(C(=O)O)CCCC2)CCCC1
> 100 µM (inactive)

Request the reported GI50 associated with O=c1[nH]nc(Cc2ccccc2)n1/N=C\CC/C=N\n1c(Cc2ccccc2)n[nH]c1=O
25.8 µM (inactive)

Request the reported GI50 associated with CN(C)CCNc1ccc2nnn3c4ccc(O)cc4c(=O)c1c23
15.2 µM (inactive)

Request the reported GI50 associated with CCn1c2ccccc2c2nnc(NCCCO)nc21
> 100 µM (inactive)

Request the reported GI50 associated with CCCCCCCCCCCCCCCC(=O)OCC1OC(n2ccc(N)nc2=O)C(O)C1O (stereo unspecified)
> 100 µM (inactive)

Request the reported GI50 associated with COCCN(CCNC(=O)c1cccc2c(N)c3cccc(C)c3nc12)CCOC
5.7 µM (inactive)
